- Tested on: TRPC4 (transient receptor potential cation channel C4 beta), mouse
- Experiment Description: potentiation of DAMGO EC20 TRPC4 response – cell-based, second round, Fluo-4, HEK293 TRPC4beta/mu-opioid, 1 µM, confirmation (AID 2554)
- Applied Conditions: DAMGO EC20, Fluo-4 calcium flux, at 1 µM; stronger effect = higher value
The source made the active and inactive calls.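 How the source made its calls: active means primary screen hit whose fluorescence ratio, in both repeats, exceeds the weak agonist control mean by 3 SD; inactive means the rest.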
Quantity: potentiation

Here are 4 molecules together with their reported answers.
Molecule	potentiation
c1csc(-c2nc(NCC3CCCO3)c3ccccc3n2)c1 (stereo unspecified)	inactive
OCC1(CCCc2ccccc2)CCN(Cc2cc(F)ccc2F)CC1	inactive
CCOC(=O)c1c(NC(NC(C)=O)C(Cl)(Cl)Cl)sc2c1CCCC2 (stereo unspecified)	inactive
C=CCn1c(SCC(=O)c2ccc(NS(=O)(=O)c3ccccc3)cc2)nnc1-c1cccs1	inactive

Enquiry: Give the reported potentiation for OCCCNc1c2ccccc2nc2ccccc12 (system: TRPC4 (transient receptor potential cation channel C4 beta), mouse).
Return: inactive

Enquiry: Give the reported potentiation for CCN(CC)c1ccc(CNc2nc3ccccc3n2CCN2CCCCC2)cc1 (system: TRPC4 (transient receptor potential cation channel C4 beta), mouse).
Return: inactive

Enquiry: Give the reported potentiation for CCOc1cc(CNC2CCCC2)cc(Cl)c1OCc1ccccc1 (system: TRPC4 (transient receptor potential cation channel C4 beta), mouse).
Return: inactive

Enquiry: Give the reported potentiation for CCCCC(CC)C(=O)Nc1ncc([N+](=O)[O-])s1 (stereo unspecified) (system: TRPC4 (transient receptor potential cation channel C4 beta), mouse).
Return: inactive

----------
- Target Entity: Short transient receptor potential channel 6 (Mus musculus) (UniProt Q61143)
- Sequence (Q61143 whole entry, looked up): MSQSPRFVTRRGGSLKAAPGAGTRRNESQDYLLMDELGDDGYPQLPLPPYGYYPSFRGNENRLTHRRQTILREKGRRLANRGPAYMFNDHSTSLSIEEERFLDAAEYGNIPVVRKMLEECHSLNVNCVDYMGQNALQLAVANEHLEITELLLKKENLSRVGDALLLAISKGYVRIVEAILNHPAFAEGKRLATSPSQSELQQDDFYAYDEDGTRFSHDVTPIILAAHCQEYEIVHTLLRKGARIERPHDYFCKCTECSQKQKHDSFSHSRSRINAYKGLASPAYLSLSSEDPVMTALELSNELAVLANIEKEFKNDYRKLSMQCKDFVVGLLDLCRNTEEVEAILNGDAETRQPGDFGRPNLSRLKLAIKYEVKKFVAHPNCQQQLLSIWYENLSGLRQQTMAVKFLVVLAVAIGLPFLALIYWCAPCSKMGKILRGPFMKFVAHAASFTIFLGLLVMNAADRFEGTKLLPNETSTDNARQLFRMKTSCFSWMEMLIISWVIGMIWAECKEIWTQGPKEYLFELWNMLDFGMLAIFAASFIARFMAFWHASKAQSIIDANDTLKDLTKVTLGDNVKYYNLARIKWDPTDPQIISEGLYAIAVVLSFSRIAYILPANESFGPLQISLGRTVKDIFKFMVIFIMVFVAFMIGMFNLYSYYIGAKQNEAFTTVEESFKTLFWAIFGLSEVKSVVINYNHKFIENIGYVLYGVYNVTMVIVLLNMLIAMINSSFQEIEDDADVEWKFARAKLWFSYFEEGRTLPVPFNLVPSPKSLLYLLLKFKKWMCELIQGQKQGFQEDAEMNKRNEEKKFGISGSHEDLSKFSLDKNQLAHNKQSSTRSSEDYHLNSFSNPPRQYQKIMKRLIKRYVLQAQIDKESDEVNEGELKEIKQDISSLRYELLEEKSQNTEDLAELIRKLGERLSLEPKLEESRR
- Experiment Description: TRPC6 opening by TRPC4 activator hits – cell-based, HEK293, membrane potential dye, duplicate, selectivity assay for TRPC4 activator project, confirmation (AID 434950)
- Applied Conditions: HEK293 TRPC6, membrane potential fluorescence, at 10 µM; activation
Calls of active or inactive are those of the source.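 Rule for the calls: active = membrane potential signal rise above negative control mean plus 3 SD in both duplicates, also active in the earlier TRPC4 screen; inactive = the rest.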
Quantity: outcome

Compound	Endpoint Result
Cc1c(C(=O)NCC(c2ccco2)N(C)C)oc2c(Cl)cccc12 (centres undefined)	inactive
CCCc1noc2c1/C(=N\O)CC(CC(C)SCC)C2 (centres undefined)	inactive
Cc1nn(-c2cccc(Cl)c2)c2nc(C(F)(F)F)[nH]c(=O)c12	inactive
N=c1oc2ccc(Cl)cc2cc1C(=O)NC1CCCCCC1	inactive
OCC(Cc1ccccc1)NCc1ccccc1C(F)(F)F (centres undefined)	inactive
OCCN(CCO)c1ncnc2c1sc1nc(N3CCOCC3)c3c(c12)CCCC3	inactive
O=C(Nc1ccc(F)cc1)Nc1cc(S(=O)(=O)N2CCOCC2)ccc1N1CCCC1	inactive
COc1ccc(CN2CCN(C(=O)c3ccc(F)cc3)CC2)c(OC)c1	inactive

Switching to the query record.
Enquiry: Any idea what outcome was measured for Cc1ccccc1-c1n[nH]c(=S)n1Cc1ccccc1 ?
Return: inactive

----------
- Experiment Description: serotonin-gated TRPC4 signal block – cell-based, second counter screen, HEK293 TRPC4/5HT1a, Fluo-4, counter-screen for TRPC4 inhibitor project, confirmation (AID 434978)
- Applied Conditions: Fluo-4 calcium flux, at 10 µM, serotonin added to trigger calcium flux; stronger effect = higher value
The source made the active and inactive calls.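 Rule for the calls: active = primary screen active whose calcium signal fell more than 3 SD beyond the full-serotonin control mean in both duplicate plates; inactive = the rest.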
Quantity: inhibition

Here are 10 compounds together with their reported answers.
Compound	inhibition
COC(=O)CSc1nnc(-c2sc3cc(OC)ccc3c2Cl)n1C	inactive
COc1cc(/C=C2\SC(=O)N(c3ccccc3Cl)C2=O)cc([N+](=O)[O-])c1O	26% (active)
CN(CCCNC(=O)CCCOc1cc(=O)n(C)c2ccccc12)Cc1ccccc1	inactive
CC(=O)c1cccc(Nc2cc(C)nc3c(C)cc(C)cc23)c1	inactive
O=C(COc1ccccc1)NC1CCCCCCC1	inactive
CSc1ccc(C(=O)NCC(c2ccco2)N(C)C)cc1[N+](=O)[O-] (stereo unspecified)	inactive
c1ccc(CNc2c3ccccc3nc3ccccc23)cc1	23.7% (active)
O=C(COc1cc(Cl)c(Cl)cc1Cl)NCCc1ccccn1	inactive
COc1ccc(-c2nn(-c3ccccc3C)cc2CNCc2cccnc2)cc1F	inactive
c1ccc(COC(CN2CCCCCC2)CN2CCCCCC2)cc1	31.1% (active)

Switching to the query record.
Enquiry: Any idea what inhibition was measured for CCOC(=O)C1NN=C(C(=O)c2ccccc2)C1c1ccc(Cl)cc1 (stereo unspecified) ?
Return: inactive

----------
- Experiment Description: parental HEK293 cell activity, no Kir2.1 – FluxOR thallium flux, duplicate, single concentration, counter-screen for Kir2.1 inhibitor project, confirmation (AID 2105)
- Applied Conditions: parental HEK293 cells, FluxOR thallium flux fluorescence, at 10 µM; 0% = unstimulated blank wells
This is one part of the list. Calls of active or inactive are those of the source.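 The calls were made as follows: active = dye signal at least 3 control SD above or below untreated wells in both duplicates, raw fluorescence within 3, either direction; inactive = the rest.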
Form entry, call: pick from active, inactive

Examples with answers:
Compound	Class Name
CS(=O)(=O)c1sc(C(=O)NC(=S)Nc2ccc(OC(F)(F)F)cc2)c2c1C=CCC2	inactive
Cc1cccc(NC(=O)CSC(N)=O)c1C	inactive
Cc1ccccc1C(=O)NCCN=C1NS(=O)(=O)c2ccccc21	inactive
C/C(=N\NC(=O)c1ccoc1C)c1ccccc1O	inactive
CC(C)(c1ccccc1)c1ccc(OCCN)cc1	inactive
Cc1ccc(NC(=O)C2CC2c2ccccc2)cc1 (stereo not drawn)	inactive
FC(F)(F)c1cccc(NC(=S)Nc2cccc(Cl)c2)c1	inactive
Cc1ccc(-n2nc3c(c2NC(=O)CCC2CCCCC2)CS(=O)C3)cc1 (stereo not drawn)	inactive

Enquiry: Could you please tell me the result logged for COc1ccccc1-c1n[nH]c2c1[C@H](C)CC[C@H]2C(C)C in this assay?
Return: inactive

Enquiry: Could you please tell me the result logged for CC1=C/C(=N\OS(=O)(=O)c2ccccc2)C=CC1=O in this assay?
Return: inactive

Enquiry: Could you please tell me the result logged for CCc1ccccc1NC(=O)[C@@H]1CCC(=O)N1C1OC(=O)c2c1ccc(OC)c2OC (stereo partly drawn) in this assay?
Return: inactive

Enquiry: Could you please tell me the result logged for COc1ccccc1CCNS(=O)(=O)c1cc2c3c(c1)C(C)C(=O)N3CCC2 (stereo not drawn) in this assay?
Return: inactive

Enquiry: Could you please tell me the result logged for Cc1[nH]n(-c2cccc(Cl)c2)c(=O)c1/C=N/n1c(C)nc2ccccc2c1=O in this assay?
Return: active

Enquiry: Could you please tell me the result logged for CC12CN(Cc3ccccc3)CC(C)(CN(Cc3ccccc3)C1)C2=NO in this assay?
Return: inactive

Enquiry: Could you please tell me the result logged for O=C(Cc1c[nH]c2ccccc12)OCCOC(=O)Cc1c[nH]c2ccccc12 in this assay?
Return: inactive

Enquiry: Could you please tell me the result logged for CSc1c(SCc2ccccc2)cnn(Cc2ccccc2)c1=O in this assay?
Return: inactive

----------
- Target Entity: Short transient receptor potential channel 4 (Mus musculus)
- Experiment Description: calcium flux activators in TRPC4/5HT1a cells, counter-screen for TRPC4 activator project, cell-based, second counter screen, HEK293 TRPC4/5HT1a, Fluo-4 (AID 434977)
- Applied Conditions: Fluo-4 calcium flux, at 10 µM
Active and inactive are the calls of the source.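 Rule for the calls: active = calcium signal rise above buffer-control mean plus 5 SD in both duplicates, and also a hit in the primary screen; inactive = the rest.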
Form entry, call: pick from true = active, false = inactive

Examples with answers:
Compound	Class Name
OCC1(Cc2ccccc2)CCCN(Cc2cnn(-c3ccccc3)c2)C1 (stereo unspecified)	false
CC(Oc1ccc(Cl)cc1Cl)C(=O)N(C)c1ccccc1 (stereo unspecified)	false
Cc1cc2nc3s/c(=C/c4ccc(-c5ccccc5C(=O)O)o4)c(=O)n3c2cc1C	true
CC1CCCCC1NC(=O)c1cc2ccccc2o1 (stereo unspecified)	false
CC(C)OC(=O)C1CC=CCC1C(=O)Nc1ccc(Cl)cc1 (stereo unspecified)	false

Turning to the following compound.
Enquiry: Could you please tell me the result logged for O=C(Nc1c(F)cc(F)cc1Br)c1cc(-c2ccc(O)cc2)on1 in this assay?
Return: false

----------
- Target Entity: Short transient receptor potential channel 4 (Mus musculus)
- Experiment Description: blockers of DAMGO-evoked TRPC4 calcium flux – cell-based, Fluo4, HEK293 TRPC4beta/mu-opioid, confirmation (AID 2636)
- Applied Conditions: at 10 µM
Activity calls are given as the source filed them.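 Rule for the calls: active = calcium signal cut by more than 3 SD below the full-agonist control yet still positive, in both repeats and the earlier primary screen; inactive = the rest.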
Form entry, call: pick from active, inactive

Examples with answers:
Molecule	Target Entity	Class Name
Cc1ccc(-c2[nH]c3ccccc3c2SCCN)cc1	Short transient receptor potential channel 4 (Mus musculus)	inactive
CC(C)c1nc2ccc(Br)cn2c1NC1CCCC1	Short transient receptor potential channel 4 (Mus musculus)	inactive
CCCCn1c(NCCO)nc2ccccc21	Short transient receptor potential channel 4 (Mus musculus)	active
Cc1c(CCOC(=O)CC23CC4CC(CC(C4)C2)C3)sc[n+]1Cc1ccccc1	Short transient receptor potential channel 4 (Mus musculus)	active
O=C(CCc1ccccc1)Nc1ccnn1C1CCN(C/C=C/c2ccccc2)CC1	Short transient receptor potential channel 4 (Mus musculus)	inactive

Enquiry: Could you please tell me the result logged for COc1ccc(C(CNC(=O)Cc2ccc(-c3ccccc3)cc2)N(C)C)cc1 (stereo unspecified) in this assay?
Return: inactive

Enquiry: Could you please tell me the result logged for COc1ccccc1CNCc1ccc(OC)c2ccccc12 in this assay?
Return: active

Enquiry: Could you please tell me the result logged for CC(=O)c1c(O)c(C)c(O)c2c1OC1=CC(=O)C(C(C)=O)C(=O)[C@@]12C (stereo partly specified) in this assay?
Return: inactive
